system: IGROV-1; test: NCI tumour cell line growth inhibition, 48 h
Activity calls are given as the source filed them. Cut-off read from the data, not from the text of the source: active = GI50 up to about 1.1 µM and inactive = higher.
measurement type: GI50

Input line: Look up GI50 for this compound: c1csc(C(NC2=NCCO2)C2CC2)c1 (stereo unspecified)
Output line: > 100 µM (inactive)

Input line: Look up GI50 for this compound: COc1cc2c3c(c4cc(OC)c(OC)cc4c2cc1OC)C(=O)C1CCC(=O)N1C3 (stereo unspecified)
Output line: 2.43 µM (inactive)

Input line: Look up GI50 for this compound: "N[C@@H]1c2c(Br)sc(Br)c2[C@H](O)[C@@H]1O"
Output line: > 100 µM (inactive)

Input line: Look up GI50 for this compound: Cc1cn(CC2=NCC(O)CN2)c(=O)[nH]c1=O (stereo unspecified)
Output line: > 100 µM (inactive)

Input line: Look up GI50 for this compound: "Cc1ccc(S(=O)(=O)N2CCSCCN(S(=O)(=O)c3ccc(C)cc3)CCN(S(=O)(=O)c3ccc(C)cc3)CC2)cc1"
Output line: 56.2 µM (inactive)

***
Input line: Look up GI50 for this compound: O=C1OC(=O)C2CCCC3CCCC1C32 (stereo unspecified)
Output line: > 100 µM (inactive)

Input line: Look up GI50 for this compound: CCCCCCCC(=O)OCC(C[As](=O)(O)O)OC(=O)CCCCCCC (stereo unspecified)
Output line: 13.8 µM (inactive)

Input line: Look up GI50 for this compound: "Oc1nc2c(c(-c3cccc(Cl)c3)n1)COC/C2=C\c1cccc(Cl)c1"
Output line: > 100 µM (inactive)

Input line: Look up GI50 for this compound: CCC1C(=O)OCc2c1cc1n(c2=O)C(CC)c2c-1nc1ccccc1c2Cl (stereo unspecified)
Output line: 19.9 µM (inactive)
